B1: RHOBTB2 (parent)
chain: NQEITKAFHVRRTNRVKECLAKGT

- Variants of: B1
- assay.remarks: protein stability index of a GFP-peptide fusion (GPS, HEK-293T) (PSI 1-6); higher = more stable;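 further: lentivirally expressed fusions sorted by FACS into six bins by GFP to DsRed ratio, PSI derived from sequencing read proportions per bin multiplied by bin number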
- condition: c terminus: a fixed tail appended
parameter: protein stability index
No unit in the answer, please; the number alone is enough.

> print(dat)
                     sequence.data  assay.value
1  NQEITKAFHVRRTNRVKECEAKGT [L20E]         4.03
2   NPEITKAFHVRRTNRVKECLAKGT [Q2P]          3.4
3   NQEITWAFHVRRTNRVKECLAKGT [K6W]         2.34

protein stability index for NQEITKAFHVRFTNRVKECLAKGT [R12F] ? 2.16

# get_value(readout='protein stability index', item= NQEITKAFHVRRTNRVKECSAKGT [L20S] ) 4.04

May I ask what protein stability index has been recorded for NQEITKAFHVRRTNRVKECLKKGT [A21K] ? 3.15

Given the entry NQEITKCFHVRRTNRVKECLAKGT [A7C] , report its measured protein stability index. 2.94

Give the measured protein stability index of NQEITKAFHVRRTNRVKECLAKGL [T24L] . 3.53
